- Test system: FGR
- conditionDescription: concentration: 1 μM, replicates: in singlicate; n = 1;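 further: KINOMEscan kinase panel screen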
metricName: %Inh
Answer shape: numeric part, then the unit.

molecule: Fc1ccc(-c2ncn(CCCN3CCOCC3)c2-c2cccnc2)cc1
observedMeasurement: 0%
--
molecule: CNc1ncnc2[nH]ncc12
observedMeasurement: 0%

// switching to the query molecule
# input Using FGR as the test system, report measured %Inh of Cn1ccc2ncnc(Oc3ccc(NC(=O)Nc4ccncc4)c(Cl)c3)c21 .
# output 5%

====

The following compounds are shown together with reported %Inh values.
- Tested on: BMPR1B
- conditionDescription: concentration: 1 μM, replicates: in singlicate; n = 1

compound: C[C@@H](Oc1cc(-n2cnc3ccc(NC(=O)NC(C)(C)C)cc32)sc1C(N)=O)c1ccccc1Cl
%Inh: 0%
--
compound: Cl.Cl.Cl.Fc1ccc(-c2ncn(C3CCNCC3)c2-c2ccnc(Nc3ccccc3)n2)cc1
%Inh: 0%
--
compound: Cc1cccc(-c2nc(-c3ccc(S(C)(=O)=O)cc3)sc2-c2ccncc2)c1
%Inh: 0%
--
compound: COc1ccc(Nc2nccc(N3CCC(NC(=O)Nc4cc(C)ccc4C)C3)n2)cc1 (stereo not drawn)
%Inh: 0%
--
compound: Nc1nccc(-c2c(-c3ccc(F)cc3)ncn2C2CCN(CC(F)(F)F)CC2)n1
%Inh: 0%

# input Using BMPR1B as the test system, report measured %Inh of N#Cc1ccc(-c2cc(-c3c[nH]nc3-c3ccccn3)ccn2)cc1 .
# output 15%

# input Using BMPR1B as the test system, report measured %Inh of O=C(NCCCN1CCOCC1)c1cccc(Nc2nccc(Nc3ccc(Oc4ccccc4)cc3)n2)c1 .
# output 0%

# input Using BMPR1B as the test system, report measured %Inh of O=C(NOCC1CC1)c1ccc(F)c(F)c1Nc1ccc(I)cc1Cl .
# output 0%

# input Using BMPR1B as the test system, report measured %Inh of O=c1cc(N2CCOCC2)nc2n(Cc3cccc(F)c3)ccn12 .
# output 0%
